# credit: patent US12410160B2

measuredTarget: UniProtKB P50053
Sequence (P50053 other isoform, or with tags, fused parts or gaps): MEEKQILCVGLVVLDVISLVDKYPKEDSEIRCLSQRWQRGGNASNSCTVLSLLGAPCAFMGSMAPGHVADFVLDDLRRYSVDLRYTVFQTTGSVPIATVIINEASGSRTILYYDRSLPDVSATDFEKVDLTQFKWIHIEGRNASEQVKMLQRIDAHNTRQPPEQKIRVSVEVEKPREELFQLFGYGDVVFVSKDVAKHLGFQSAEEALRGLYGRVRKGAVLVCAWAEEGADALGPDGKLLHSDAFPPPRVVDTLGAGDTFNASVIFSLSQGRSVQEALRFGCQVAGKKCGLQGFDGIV
testProtocol: KHK Biochemical Assay (IC50), ADP-Glo, KHK-A
assaySetup: ADP-Glo; average of at least two separate assays
readoutName: IC50 (nM)

These recorded examples may help you get a feel for the data.
{"columns": ["molecule", "IC50 [nM]"],
 "data": [
  ["NS(=O)(=O)c1cccc(-c2nc(N3CC4CCCC43)nc3c2CCC3)c1 (racemic)", 6960],
  ["C[C@H]1CCN1c1nc2c(c(-c3cc(F)c4c(=O)[nH]ccc4c3)n1)CCC2", 16.1],
  ["C[C@H]1CCN1c1nc(-c2ccc(C(N)=O)cc2)c2c(n1)C(F)(F)CC2", 2.3]
]}

P. C[C@H]1CCN1c1nc2c(c(-c3cncc(S(N)(=O)=O)c3)n1)CCC2
Q. C[C@H]1CCN1c1nc2c(c(-c3ccc(-n4cccn4)cc3)n1)CCC2
R. C[C@H]1CN(c2nc3c(c(-c4ccc(C(N)=O)cc4)n2)CCC3)[C@H]1C
Rank order required: IC50, descending. # the answer lists labels in the order requested
R, Q, P
